tested on: 317291-083-R-J1-PDC complex spheroids, viability; test: Anticancer human tumor 317291-083-R-J1-PDC patient-derived soft tissue sarcoma cell line growth inhibition [GQUAD]; conditions: second compound 10 µM; first compound 0.1 µM; active = viability on the fitted dose curve at most 10% of control; inactive = the rest
Entry note: the call must match one of active, inactive

Examples from the recorded data:
{"MOLECULE": "CC1COCCN1c1cc(-c2ccnn2C)c2ccnc(-c3ccn[nH]3)c2n1 (stereo not drawn) + Cc1[nH]c2ccc(F)cc2c1-c1nc2c3cccnc3c3ncccc3c2[nH]1", "DISCRETE_LABEL": "inactive"}
{"MOLECULE": "COc1ncnc(C2CC2)c1-c1ncc2cnn(Cc3ccc(-c4nc(C(F)(F)F)cn4C(C)C)cc3)c2n1 + Cc1cnc(CNC(=O)c2c(=O)c3ccc(N4CCCN(C)CC4)nc3n3c2sc2ccccc23)cn1", "DISCRETE_LABEL": "active"}

Now look at this entry.
Q: Please state the recorded outcome for this molecule: CC(C)(O)C1CCC(Nc2ccc3ncc(-c4cccc(C(F)(F)F)c4)n3n2)CC1 (stereo not drawn) + CN(C)c1ccc(Nc2c3ccc(NC(=O)CCN4CCCC4)cc3nc3cc(NC(=O)CCN4CCCC4)ccc23)cc1
Ans: active

* * *

system: 317291-083-R-J1-PDC complex spheroids, viability; assay: Anticancer human tumor 317291-083-R-J1-PDC cell line growth inhibition [GQUAD]; conditions: second compound 10 µM; first compound 0.0999 µM; stronger effect = lower value;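 note: spheroids exposed to compounds for one week before readout; percent viability relative to DMSO vehicle wells taken as 100%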
PROPERTY_MEASURED: viability, T/C (%)
Form entry: value (%) — number only.

Worked cases, viability, T/C given:
{"COMPOUND": "Cc1[nH]c2ccccc2c1CCNCc1ccc(/C=C/C(=O)NO)cc1 + CN(C)c1ccc(Nc2c3ccc(NC(=O)CCN4CCCC4)cc3nc3cc(NC(=O)CCN4CCCC4)ccc23)cc1", "PROPERTY_MEASURED": "viability, T/C", "UNIT_STRING": "%", "RECORDED_NUMBER": 0.38}
{"COMPOUND": "CCc1c2c(nc3ccc(O)cc13)-c1cc3c(c(=O)n1C2)COC(=O)[C@]3(O)CC + CN(C)c1ccc(Nc2c3ccc(NC(=O)CCN4CCCC4)cc3nc3cc(NC(=O)CCN4CCCC4)ccc23)cc1", "PROPERTY_MEASURED": "viability, T/C", "UNIT_STRING": "%", "RECORDED_NUMBER": 2.45}

Q: Form field: reported viability, T/C of Cn1ncnc1[C@H]1c2n[nH]c(=O)c3cc(F)cc(c23)N[C@@H]1c1ccc(F)cc1 + Cc1[nH]c2ccc(F)cc2c1-c1nc2c3cccnc3c3ncccc3c2[nH]1
Ans: 86

Q: Moving on to the next compound: CC[C@@]1(O)C(=O)OCc2c1cc1n(c2=O)Cc2cc3c(CN(C)C)c(O)ccc3nc2-1 + Cc1cnc(CNC(=O)c2c(=O)c3ccc(N4CCCN(C)CC4)nc3n3c2sc2ccccc23)cn1
Ans: 24

Q: Moving on to the next compound: Cc1[nH]c2ccccc2c1CCNCc1ccc(/C=C/C(=O)NO)cc1 + Cc1cnc(CNC(=O)c2c(=O)c3ccc(N4CCCN(C)CC4)nc3n3c2sc2ccccc23)cn1
Ans: 0.47

Q: Moving on to the next compound: Cc1[nH]c2ccccc2c1CCNCc1ccc(/C=C/C(=O)NO)cc1 + Cc1[nH]c2ccc(F)cc2c1-c1nc2c3cccnc3c3ncccc3c2[nH]1
Ans: 3.62

Q: Moving on to the next compound: CCc1c2c(nc3ccc(O)cc13)-c1cc3c(c(=O)n1C2)COC(=O)[C@]3(O)CC + Cc1cnc(CNC(=O)c2c(=O)c3ccc(N4CCCN(C)CC4)nc3n3c2sc2ccccc23)cn1
Ans: 6.98

Q: Moving on to the next compound: Cn1ncnc1[C@H]1c2n[nH]c(=O)c3cc(F)cc(c23)N[C@@H]1c1ccc(F)cc1 + CN(C)c1ccc(Nc2c3ccc(NC(=O)CCN4CCCC4)cc3nc3cc(NC(=O)CCN4CCCC4)ccc23)cc1
Ans: 5.71

Q: Moving on to the next compound: Cn1ncnc1[C@H]1c2n[nH]c(=O)c3cc(F)cc(c23)N[C@@H]1c1ccc(F)cc1 + Cc1cnc(CNC(=O)c2c(=O)c3ccc(N4CCCN(C)CC4)nc3n3c2sc2ccccc23)cn1
Ans: 29.9

* * *

tested on: 317291-083-R-J1-PDC complex spheroids, viability; test: Anticancer human tumor 317291-083-R-J1-PDC cell line growth inhibition [GQUAD]; settings: second compound 0.1 µM; first compound 0.0999 µM; active = viability on the fitted dose curve at most 10% of control; inactive = the rest;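 note: spheroids exposed to compounds for one week before readout; percent viability relative to DMSO vehicle wells taken as 100%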
Entry note: the call must match one of label 1 for active, label 0 for inactive

Examples from the recorded data:
{"COMPOUND": "Cc1[nH]c2ccccc2c1CCNCc1ccc(/C=C/C(=O)NO)cc1 + CN(C)c1ccc(Nc2c3ccc(NC(=O)CCN4CCCC4)cc3nc3cc(NC(=O)CCN4CCCC4)ccc23)cc1", "DISCRETE_LABEL": "label 0"}
{"COMPOUND": "CCc1c2c(nc3ccc(O)cc13)-c1cc3c(c(=O)n1C2)COC(=O)[C@]3(O)CC + Cc1[nH]c2ccc(F)cc2c1-c1nc2c3cccnc3c3ncccc3c2[nH]1", "DISCRETE_LABEL": "label 1"}
{"COMPOUND": "Cc1[nH]c2ccccc2c1CCNCc1ccc(/C=C/C(=O)NO)cc1 + Cc1[nH]c2ccc(F)cc2c1-c1nc2c3cccnc3c3ncccc3c2[nH]1", "DISCRETE_LABEL": "label 1"}

Q: Please state the recorded outcome for this compound: CC[C@@]1(O)C(=O)OCc2c1cc1n(c2=O)Cc2cc3c(CN(C)C)c(O)ccc3nc2-1 + Cc1[nH]c2ccc(F)cc2c1-c1nc2c3cccnc3c3ncccc3c2[nH]1
Ans: label 0

Q: Moving on to the next compound: CC[C@@]1(O)C(=O)OCc2c1cc1n(c2=O)Cc2cc3c(CN(C)C)c(O)ccc3nc2-1 + CN(C)c1ccc(Nc2c3ccc(NC(=O)CCN4CCCC4)cc3nc3cc(NC(=O)CCN4CCCC4)ccc23)cc1
Ans: label 0

Q: Moving on to the next compound: Cc1[nH]c2ccccc2c1CCNCc1ccc(/C=C/C(=O)NO)cc1 + Cc1cnc(CNC(=O)c2c(=O)c3ccc(N4CCCN(C)CC4)nc3n3c2sc2ccccc23)cn1
Ans: label 0

Q: Moving on to the next compound: Cn1ncnc1[C@H]1c2n[nH]c(=O)c3cc(F)cc(c23)N[C@@H]1c1ccc(F)cc1 + Cc1cnc(CNC(=O)c2c(=O)c3ccc(N4CCCN(C)CC4)nc3n3c2sc2ccccc23)cn1
Ans: label 0

* * *

tested on: 317291-083-R-J1-PDC complex spheroids, viability; assay: Anticancer human tumor 317291-083-R-J1-PDC cell line growth inhibition [GQUAD]; details: second compound 0.316 µM; first compound 3.16 µM; active means viability on the fitted dose curve at most 10% of control; inactive means the rest;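 note: spheroids exposed to compounds for one week before readout; percent viability relative to DMSO vehicle wells taken as 100%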
Entry note: the call must match one of 1 = active, -1 = inactive

{"COMPOUND": "COc1cccc2c1C(=O)c1c(O)c3c(c(O)c1C2=O)CC(O)(C(=O)CO)CC3OC1CC(N)C(O)C(C)O1 (stereo not given) + CN(C)c1ccc(Nc2c3ccc(NC(=O)CCN4CCCC4)cc3nc3cc(NC(=O)CCN4CCCC4)ccc23)cc1", "DISCRETE_LABEL": 1}
{"COMPOUND": "Nc1ccn(C2OC(CO)C(O)C2(F)F)c(=O)n1 (stereo not given) + Cc1[nH]c2ccc(F)cc2c1-c1nc2c3cccnc3c3ncccc3c2[nH]1", "DISCRETE_LABEL": -1}
{"COMPOUND": "C=CCn1c(=O)c2cnc(Nc3ccc(N4CCN(C)CC4)cc3)nc2n1-c1cccc(C(C)(C)O)n1 + Cc1cnc(CNC(=O)c2c(=O)c3ccc(N4CCCN(C)CC4)nc3n3c2sc2ccccc23)cn1", "DISCRETE_LABEL": -1}
{"COMPOUND": "CCCS(=O)(=O)Nc1ccc(F)c(C(=O)c2c[nH]c3ncc(-c4ccc(Cl)cc4)cc23)c1F + CN(C)c1ccc(Nc2c3ccc(NC(=O)CCN4CCCC4)cc3nc3cc(NC(=O)CCN4CCCC4)ccc23)cc1", "DISCRETE_LABEL": -1}

Now look at this entry.
Q: Please state the recorded outcome for this compound: Cc1cccc(N(C)C(=O)C2C(O)CCN2c2nc(C)cc(C(F)(F)F)c2C#N)c1 (stereo not given) + CN(C)c1ccc(Nc2c3ccc(NC(=O)CCN4CCCC4)cc3nc3cc(NC(=O)CCN4CCCC4)ccc23)cc1
Ans: -1

* * *

test system: 317291-083-R-J1-PDC complex spheroids, viability; test: Anticancer human tumor 317291-083-R-J1-PDC cell line growth inhibition [GQUAD]; settings: second compound 0.316 µM; first compound 0.316 µM; stronger effect = lower value;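 note: spheroids exposed to compounds for one week before readout; percent viability relative to DMSO vehicle wells taken as 100%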
Here the recorded viability, T/C is given for each entry.
Form entry: value (%) — number only.

Worked cases, viability, T/C given:
{"MOLECULE": "Nc1ccn(C2OC(CO)C(O)C2(F)F)c(=O)n1 (stereo not drawn) + CN(C)c1ccc(Nc2c3ccc(NC(=O)CCN4CCCC4)cc3nc3cc(NC(=O)CCN4CCCC4)ccc23)cc1", "TEST_TARGET": "317291-083-R-J1-PDC complex spheroids, viability", "viability, T/C (%)": 11.9}
{"MOLECULE": "COc1cccc2c1C(=O)c1c(O)c3c(c(O)c1C2=O)CC(O)(C(=O)CO)CC3OC1CC(N)C(O)C(C)O1 (stereo not drawn) + CN(C)c1ccc(Nc2c3ccc(NC(=O)CCN4CCCC4)cc3nc3cc(NC(=O)CCN4CCCC4)ccc23)cc1", "TEST_TARGET": "317291-083-R-J1-PDC complex spheroids, viability", "viability, T/C (%)": 23.6}

Q: Form field: reported viability, T/C of CC1COCCN1c1cc(C2(S(C)(=N)=O)CC2)nc(-c2ccnc3[nH]ccc23)n1 (stereo not drawn) + Cc1cnc(CNC(=O)c2c(=O)c3ccc(N4CCCN(C)CC4)nc3n3c2sc2ccccc23)cn1
Ans: 42.8
